Tested on: aldosterone
Assay: aldosterone-antagonistic properties in adrenalectomised rats (urine volume, sodium and potassium excretion)
Format: in vivo, adrenalectomised female Holtzmann rats
Conditions: Rattus norvegicus, po, read-out: potassium excretion [K+], in %, based on control animals
Reported response vs control in vivo at 10 mg/kg values are given for each entry in this list.
MEASURE: response vs control in vivo at 10 mg/kg

>>> obs_value("CN(C)C(=O)Nc1ccc2c(c1)C(c1ccccc1F)=NCC(=O)N2C")
"91%"
>>> obs_value("CN1C(=O)CN=C(c2ccccc2F)c2cc(NC(=O)NC(C)(C)C)ccc21")
"70%"
>>> obs_value("CCNC(=O)Nc1ccc2c(c1Cl)C(c1ccccc1F)=NCC(=O)N2C")
"149%"
>>> obs_value("CCN(CC)C(=O)Nc1ccc2c(c1Cl)C(c1ccccc1F)=NCC(=O)N2C")
"110%"
>>> obs_value("CC(CO)NC(=O)Nc1ccc2c(c1)C(c1ccccc1F)=NCC(=O)N2C (racemic)")
"129%"
>>> obs_value("COc1ccc(NC(=O)Nc2ccc3c(c2)C(c2ccccc2F)=NCC(=O)N3C)cc1")
"145%"
>>> obs_value("CN1C(=O)CN=C(c2ccccc2F)c2cc(NC(=O)N3CC3)ccc21")
"108%"

---

Experiment: acute toxicity, single oral administration to mice
Settings: mouse, in vivo, p.o.
MEASURE: LD50

>>> obs_value("CNC(=O)Nc1ccc2c(c1Cl)C(c1ccccc1F)=NCC(=O)N2C")
"1250 to 2500 mg/kg"
>>> obs_value("CN1C(=O)CN=C(c2ccccc2F)c2cc(NC(=O)NCCO)ccc21")
"> 5000 mg/kg"
>>> obs_value("CN1C(=O)CN=C(c2ccccc2F)c2cc(NC(=O)N3CC3)ccc21")
"> 5000 mg/kg"
>>> obs_value("CN1C(=O)CN=C(c2ccccc2F)c2cc(NC(=O)N3CCCC3)ccc21")
"> 5000 mg/kg"
>>> obs_value("CCCCNC(=O)Nc1ccc2c(c1Cl)C(c1ccccc1F)=NCC(=O)N2C")
"> 5000 mg/kg"
>>> obs_value("CNC(=O)Nc1ccc2c(c1)C(c1ccccc1F)=NCC(=O)N2C")
"> 5000 mg/kg"
>>> obs_value("CCN(C)C(=O)Nc1ccc2c(c1Cl)C(c1ccccc1F)=NCC(=O)N2C")
"2500 to 5000 mg/kg"
>>> obs_value("COc1ccc(NC(=O)Nc2ccc3c(c2)C(c2ccccc2F)=NCC(=O)N3C)cc1")
"> 5000 mg/kg"
>>> obs_value("CCNC(=O)Nc1ccc2c(c1Cl)C(c1ccccc1F)=NCC(=O)N2C")
"2500 to 5000 mg/kg"

---

Assay: acute toxicity, single oral administration to rats
Conditions: rat, in vivo, p.o.
MEASURE: LD50

>>> obs_value("CC1N=C(c2ccccc2F)c2c(ccc(NC(=O)NCCO)c2Br)N(C)C1=O (racemic)")
"> 5000 mg/kg"
>>> obs_value("CC1N=C(c2ccccc2Cl)c2c(ccc(NC(=O)NCCO)c2Br)N(C)C1=O (racemic)")
"> 5000 mg/kg"
>>> obs_value("CN1C(=O)CN=C(c2ccccc2F)c2c1ccc(NC(=O)N1CCOCC1)c2Cl")
"1250 to 2500 mg/kg"
>>> obs_value("CC1N=C(c2ccccc2Cl)c2c(ccc(NC(=O)NCCO)c2Cl)N(C)C1=O (racemic)")
"> 5000 mg/kg"
